- system: Carbonic anhydrase 2 (Homo sapiens)
- procedureDetails: CAII small-molecule binders, profiling panel, biochemical, small-molecule microarray, Alexa647-labelled CAII (AID 1122)
- statedConditions: CAII-A647 binding fluorescence, higher = more signal
Collected composite z-score values appear next to each entry.

[
  {
    "compound": "C=CCC(OC(C)=O)[C@@H]1[C@@H](N(Cc2ccc(-c3ccccc3)cc2)C(=O)Cc2ccc(OC)cc2)c2cc(OCCCO)ccc2N1C(=O)c1ccc2ccccc2c1 (stereo partly drawn)",
    "composite z-score": 0.269
  },
  {
    "compound": "C=C(C(=O)CC[C@@H](OC(=O)c1ccccc1-c1ccccc1C(=O)O)c1ccc(CO)o1)C(C)C",
    "composite z-score": 0.75
  },
  {
    "compound": "CCOC(=O)C=C1C[C@@H](c2cccc([N+](=O)[O-])c2)O[C@@H](c2cccc([N+](=O)[O-])c2)O1",
    "composite z-score": 0.425
  },
  {
    "compound": "O=C1C2C=CC(C(O)c3ccccn3)N(Nc3ccc([N+](=O)[O-])cc3)C2C(=O)N1c1ccccc1 (stereo not drawn)",
    "composite z-score": 0.592
  },
  {
    "compound": "CC(C)C[C@@H]1NC(=O)[C@@H]2C[C@H](C(=O)NCCCCCNC(=O)CS)[C@H](c3ccc(O)cc3)N2C1=O",
    "composite z-score": 0.36
  },
  {
    "compound": "O=C1OCC=C[C@H]2OC34C=CCN(Cn5nnc6ccccc65)C(=O)[C@H]3N(CCO)C(=O)[C@@H]4[C@@H]12 (stereo partly drawn)",
    "composite z-score": 0.935
  },
  {
    "compound": "C=CC[C@H](O)c1ccc(O)c(F)c1",
    "composite z-score": 0.828
  },
  {
    "compound": "C=CC[C@H](OC(=O)Nc1ccc(SC)cc1)c1ccc(O)c(F)c1",
    "composite z-score": 0.577
  }
]

###

- Tested on: Human papillomavirus type 1a E7 protein (residues 1-88)
- procedureDetails: HPV1a E7 small-molecule binders, primary screen, biochemical, small-molecule microarray, residues 1-88, 635 nm (AID 1129)
- statedConditions: small-molecule microarray binding, fluorescence 635 nm; higher = more signal

[
  {
    "smilesString": "CC(C)C(=C=CC[C@H](O)c1cccc(OCCO)c1)C[C@H](O)c1ccccn1",
    "composite z-score": 0.534
  },
  {
    "smilesString": "[N-]=[N+]=NCc1ccccc1C[C@@]1(C(N)=O)N=C(c2ccc(OCCCO)cc2)O[C@@H]1c1ccccc1N=[N+]=[N-]",
    "composite z-score": 1.24
  },
  {
    "smilesString": "COCCCNC(=O)[C@@]1(Cc2ccccc2I)c2ccccc2C(=O)N(Cc2ccccc2OC)[C@H]1c1ccc(CO)cc1",
    "composite z-score": 1.18
  },
  {
    "smilesString": "COC(=O)[C@@]1(Cc2ccc(F)cc2)[C@H]2c3cc(C(=O)N4CCCC4)n(CCc4c[nH]c5cc(F)ccc45)c3C[C@H]2CN1C(=O)c1ccccc1",
    "composite z-score": 1.26
  }
]

###

- procedureDetails: binders of probe aFST on microarray, primary screen, stem cell growth factor project, biochemical, small-molecule microarray, fluorescence 635/667 (AID 1086);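 further: score merges 667 nm fluorescence with signal-to-noise of each printed compound spot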
- statedConditions: higher = more signal
Below is a list of entries, each paired with its recorded composite z-score value.

[
  {
    "smilesString": "COc1cccc(C)c1NC(=O)O[C@H]1[C@H](OC(=O)Nc2ccc3c(c2)OCO3)[C@H](OC(=O)Nc2ccc3c(c2)OCO3)[C@@H](OC)O[C@@H]1CO",
    "composite z-score": 1.05
  },
  {
    "smilesString": "COC(=O)C(CC#Cc1ccc2c(c1)[C@]1(C(=O)N2)[C@H](C(=O)NC[C@H](O)c2ccccc2)[C@H]2C(=O)O[C@H](c3ccccc3)[C@H](c3ccccc3)N2[C@@H]1c1ccc(O)cc1)C(=O)OC",
    "composite z-score": 0.056
  },
  {
    "smilesString": "O=C/C=C/c1ccc(-c2ccccc2)cc1",
    "composite z-score": -0.0543
  },
  {
    "smilesString": "CCCCC=C[C@@H](NC(=O)C(C)(C)C)c1ccccc1",
    "composite z-score": 0.553
  }
]

###

- procedureDetails: small-molecule microarray binders of probe aDKK1, primary screen, biochemical, biotinylated probe, 635/667 nm fluorescence (AID 1099);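 further: score merges 667nm spot fluorescence with signal to noise across triplicate slides; reference of the scale not given here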
- statedConditions: higher = more signal

[
  {
    "smilesString": "CO[C@H]1O[C@H](CO)[C@@H](OC(=O)Nc2ccccc2)[C@@H]2OC(=O)[C@@H](Cc3ccccc3)C/C=C/C[C@H](Cc3ccccc3)C(=O)O[C@@H]12",
    "composite z-score": -0.172
  },
  {
    "smilesString": "[N-]=[N+]=NCc1ccccc1[C@H]1OC(c2ccc(OCCCO)cc2)=N[C@@]1(Cc1ccccc1N=[N+]=[N-])C(=O)N1CCOCC1",
    "composite z-score": 0.596
  },
  {
    "smilesString": "CC(C)C[C@@H]1NC(=O)[C@@H]2C[C@H](C(=O)NCCCCCNC(=O)CS)[C@H](c3ccc(O)cc3)N2C1=O",
    "composite z-score": -0.1
  },
  {
    "smilesString": "C=C(CCCC)C(=O)CC[C@H](OC(=O)c1ccccc1-c1ccccc1C(=O)O)c1cccc(OCCO)c1",
    "composite z-score": -0.399
  }
]

###

- procedureDetails: binders from COS7 lysate, DM2A8 probe, primary screen, torsin A project, cell lysate, small-molecule microarray, fluorescence 635/667 (AID 1065)
- statedConditions: higher = more signal, COS7 lysate expressing mutant human TOR1A
Entries and their composite z-score values follow.

[
  {
    "compound": "[N-]=[N+]=NCc1ccccc1[C@H]1OC(c2ccc(OCCCO)cc2)=N[C@@]1(CCS(=O)(=O)c1ccccc1)C(=O)O",
    "composite z-score": 0.401
  },
  {
    "compound": "C=C(CCCC)C(=O)CC[C@@H](OC(C)=O)c1ccc(OCCO)cc1",
    "composite z-score": 1.11
  },
  {
    "compound": "[N-]=[N+]=NCc1ccccc1C[C@@]1(C(N)=O)N=C(c2ccc(OCCCO)cc2)O[C@@H]1c1ccccc1N=[N+]=[N-]",
    "composite z-score": -0.0227
  },
  {
    "compound": "CCCNC(=O)[C@@]1(Sc2ccc(C)cc2)CC(=O)N(Cc2cc(C(F)(F)F)cc(C(F)(F)F)c2)[C@@H]1c1ccc(CO)cc1",
    "composite z-score": -0.332
  },
  {
    "compound": "O=C1c2ccccc2[C@@]2(Cc3ccccc3N(CC(F)(F)F)C2=O)[C@H](c2ccc(CO)cc2)N1Cc1ccccc1",
    "composite z-score": 0.0025
  },
  {
    "compound": "COc1ccc(C(=O)Nc2ccc(CN3C(=O)[C@@]4(O[C@@H](CC(=O)N(CCO)Cc5ccccc5)[C@H]([Si](C)(C)c5ccc(OC)cc5)[C@H]4C)c4ccccc43)cc2)cc1",
    "composite z-score": 0.378
  },
  {
    "compound": "O=C1NC(=O)C2C1C=CC(C(O)C1CCCCC1)N2Nc1ccccn1 (stereo not given)",
    "composite z-score": 0.0046
  },
  {
    "compound": "COC(=O)[C@H]1N=C(c2ccc(OCCCO)cc2)O[C@H]1c1ccccc1N=[N+]=[N-]",
    "composite z-score": 0.707
  },
  {
    "compound": "C=CCNC(=O)[C@H]1[C@@H]2C(=O)O[C@@H](c3ccccc3)[C@@H](c3ccccc3)N2[C@@H](c2ccc(O)cc2)[C@]12C(=O)Nc1ccccc12",
    "composite z-score": 0.111
  },
  {
    "compound": "CC1C2C(CCCO)=CC(C3C(=O)N(C(N)=O)C(=O)C23)N1Cc1cccc(OC(F)(F)F)c1 (stereo not given)",
    "composite z-score": 0.913
  },
  {
    "compound": "CC(C)[Si](C#Cc1ccccc1)(O[C@H](c1ccccc1)c1cn(Cc2ccccc2)nn1)C(C)C",
    "composite z-score": 0.884
  },
  {
    "compound": "CO[C@H]1O[C@H](CO)[C@@H](OC(=O)Nc2cccc(F)c2)[C@H](OC(=O)Nc2ccc3c(c2)OCO3)[C@@H]1OC(=O)Nc1ccc2c(c1)OCO2",
    "composite z-score": 0.786
  },
  {
    "compound": "CCOC(=O)C[C@H]1[C@H](OC(=O)c2ccc(-c3ccccc3)cc2)[C@@H](NC(=O)C2CCCCC2)c2cc(OCCCO)ccc2N1C(=O)Cc1ccc(OC)cc1",
    "composite z-score": 0.279
  },
  {
    "compound": "COC(=O)[C@@]1(Cc2ccc(F)cc2)[C@H]2c3cc(C(=O)N(C)C)n(Cc4ccc(C(F)(F)F)nc4)c3C[C@H]2CN1C(=O)c1ccccc1",
    "composite z-score": 0.474
  },
  {
    "compound": "CCOC(=O)C[C@H]1[C@H](OC(=O)c2cc3ccccc3oc2=O)[C@@H](NC(=O)c2ccc(-c3ccccc3)cc2)c2cc(OCCCO)ccc2N1C(=O)Cc1ccc(OC)cc1",
    "composite z-score": 0.0922
  }
]
